System: HEL
Test: WST-1 proliferation assay, HEL
Format: cell-based, human
Conditions: WST-1, 48 hours of treatment
resultType: IC50 (µM)
Please respond with the number in µM and leave the unit unwritten.

compound	IC50 / µM
CCc1c2c(nc3ccc(OCc4ccc(N=NN(C)C(=O)OC)cc4)cc13)-c1cc3c(c(=O)n1C2)COC(=O)C3(O)CC (stereo not drawn) [Chimera 1]	0.55
COC(=O)N(C)/N=N/c1ccc(COc2c(OC)cc([C@@H]3c4cc5c(cc4[C@@H](OC4O[C@@H]6CO[C@@H](C)O[C@H]6[C@H](O)[C@H]4O)[C@H]4COC(=O)[C@H]34)OCO5)cc2OC)cc1 (stereo partly drawn) [Chimera 3]	43.1

Let us examine a further case.
Request: Recorded IC50 of COC(=O)N(C)/N=N/c1ccc(CNc2cccc3c2CN(C2CCC(=O)NC2=O)C3=O)cc1 (stereo not drawn) [Chimera 2] , please.
Response: 1.17
